system: SF-295 CNS; test: NCI tumour cell line growth inhibition, 48 h
Below, each of the compounds is paired with its reported TGI value.

Worked examples follow.
CN(CCCn1ccnc1[N+](=O)[O-])CCCn1ccnc1[N+](=O)[O-]
> 100 µM
C#CC1NC(=O)C1N(CC)CC (configuration not stated)
> 100 µM
C1CN2CCNCCN(CCN1)CC2
> 100 µM
CCCCc1ccc(C#CC#Cc2ccc(CCCC)s2)s1
> 100 µM
N#Cc1ccc(C2NN=CC23C(=O)c2ccccc2OC3c2ccccc2)cc1 (configuration not stated)
> 100 µM
COc1cccc(Nc2nccc(-c3cnn4ncccc34)n2)c1
> 25 µM

Proceeding to the next compound to report its TGI.
Ask | TGI for CC(=O)OCC1OC(n2nc(Cc3ccccc3)c(=S)[nH]c2=S)C(OC(C)=O)C(OC(C)=O)C1OC(C)=O (configuration not stated) ?
Reply | > 100 µM
